# system: D(2) dopamine receptor (Homo sapiens)
# Sequence (P14416 whole entry): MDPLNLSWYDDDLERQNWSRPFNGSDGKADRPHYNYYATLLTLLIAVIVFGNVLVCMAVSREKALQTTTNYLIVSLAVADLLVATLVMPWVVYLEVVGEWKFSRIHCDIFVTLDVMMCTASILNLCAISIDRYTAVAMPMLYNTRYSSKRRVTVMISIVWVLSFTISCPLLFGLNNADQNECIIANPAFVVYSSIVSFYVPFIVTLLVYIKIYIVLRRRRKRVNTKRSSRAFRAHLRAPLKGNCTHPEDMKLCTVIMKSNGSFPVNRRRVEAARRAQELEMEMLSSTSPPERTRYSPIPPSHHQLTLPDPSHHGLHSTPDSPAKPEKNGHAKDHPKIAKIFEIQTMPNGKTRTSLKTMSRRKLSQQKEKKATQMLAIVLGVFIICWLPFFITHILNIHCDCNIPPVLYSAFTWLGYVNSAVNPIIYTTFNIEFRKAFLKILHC
# protocol.notes: Displacement of [3H]spiperone from human cloned dopamine D2long receptor expressed in CHO cells
# Type: cell-based
pKi: −log10 of the molar value.
Recorded pKi by entry
measurement.label: pKi

1. COc1ccccc1N1CCN(CCCCNC(=O)c2ccc(-c3cn(Cc4ccc(-c5ccc(Cn6cc(-c7ccc(C(=O)NCCCCN8CCN(c9ccccc9OC)CC8)cc7)nn6)cc5)cc4)nn3)cc2)CC1; 5.70
2. COc1ccccc1N1CCN(CCCCNC(=O)c2cccc(-c3cn(Cc4ccc(-c5ccc(Cn6cc(-c7cccc(C(=O)NCCCCN8CCN(c9ccccc9OC)CC8)c7)nn6)cc5)cc4)nn3)c2)CC1; 4.82

---

Recorded Ki by entry
# protocol.notes: Displacement of [3H]WAY100635 from 5HT1A receptor in pig striatal membranes
# Format: cell membranes, Sus scrofa, Striatum, Membrane
measurement.label: Ki

1) COc1ccccc1N1CCN(CCCCNC(=O)c2cccc(-c3cn(Cc4ccc(-c5ccc(Cn6cc(-c7cccc(C(=O)NCCCCN8CCN(c9ccccc9OC)CC8)c7)nn6)cc5)cc4)nn3)c2)CC1; 2500 nM
2) COc1ccccc1N1CCN(CCCCNC(=O)c2ccc(-c3cn(Cc4ccc(-c5ccc(Cn6cc(-c7ccc(C(=O)NCCCCN8CCN(c9ccccc9OC)CC8)cc7)nn6)cc5)cc4)nn3)cc2)CC1; 1200 nM

---

# system: D(1A) dopamine receptor (Sus scrofa, UniProt P50130)
# Sequence (P50130 whole entry): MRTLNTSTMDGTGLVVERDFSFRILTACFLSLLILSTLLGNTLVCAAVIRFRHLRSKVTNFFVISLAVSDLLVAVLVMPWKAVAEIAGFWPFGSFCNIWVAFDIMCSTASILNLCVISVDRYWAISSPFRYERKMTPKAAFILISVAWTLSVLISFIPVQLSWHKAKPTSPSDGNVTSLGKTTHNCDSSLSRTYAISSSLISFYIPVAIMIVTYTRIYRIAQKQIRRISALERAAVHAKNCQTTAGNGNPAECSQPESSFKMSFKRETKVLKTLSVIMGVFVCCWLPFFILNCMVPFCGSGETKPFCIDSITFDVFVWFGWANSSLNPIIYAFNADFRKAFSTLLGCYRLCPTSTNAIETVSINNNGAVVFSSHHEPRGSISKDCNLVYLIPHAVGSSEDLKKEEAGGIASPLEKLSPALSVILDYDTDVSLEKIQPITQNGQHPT
# protocol.notes: Displacement of [3H]SCH23390 from dopamine D1 receptor in pig striatal membranes
measurement.label: Ki

1) COc1ccccc1N1CCN(CCCCNC(=O)c2ccc(-c3cn(Cc4ccc(-c5ccc(Cn6cc(-c7ccc(C(=O)NCCCCN8CCN(c9ccccc9OC)CC8)cc7)nn6)cc5)cc4)nn3)cc2)CC1; 9.5 µM
2) COc1ccccc1N1CCN(CCCCNC(=O)c2cccc(-c3cn(Cc4ccc(-c5ccc(Cn6cc(-c7cccc(C(=O)NCCCCN8CCN(c9ccccc9OC)CC8)c7)nn6)cc5)cc4)nn3)c2)CC1; 3.4 µM

---

# system: D(3) dopamine receptor (Homo sapiens)
# Sequence (P35462 whole entry): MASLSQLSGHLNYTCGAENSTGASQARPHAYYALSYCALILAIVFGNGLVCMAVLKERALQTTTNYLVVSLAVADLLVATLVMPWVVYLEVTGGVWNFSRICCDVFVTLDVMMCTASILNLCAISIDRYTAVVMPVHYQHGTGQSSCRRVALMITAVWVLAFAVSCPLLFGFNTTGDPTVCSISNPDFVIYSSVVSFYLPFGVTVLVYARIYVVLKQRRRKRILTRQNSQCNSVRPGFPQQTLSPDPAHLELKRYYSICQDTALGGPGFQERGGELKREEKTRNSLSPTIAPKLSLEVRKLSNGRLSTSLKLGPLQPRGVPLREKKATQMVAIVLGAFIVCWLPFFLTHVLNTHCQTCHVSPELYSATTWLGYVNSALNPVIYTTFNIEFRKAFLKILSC
pKi: −log10 of the molar value.
measurement.label: pKi

1) COc1ccccc1N1CCN(CCCCNC(=O)c2cccc(-c3cn(Cc4ccc(-c5ccc(Cn6cc(-c7cccc(C(=O)NCCCCN8CCN(c9ccccc9OC)CC8)c7)nn6)cc5)cc4)nn3)c2)CC1; 6.64

---

# system: UniProt P14416
# protocol.notes: Displacement of [3H]spiperone from human cloned dopamine D2short receptor expressed in CHO cells
# Format: cell-based
pKi: −log10 of the molar value.
measurement.label: pKi

1) COc1ccccc1N1CCN(CCCCNC(=O)c2ccc(-c3cn(Cc4ccc(-c5ccc(Cn6cc(-c7ccc(C(=O)NCCCCN8CCN(c9ccccc9OC)CC8)cc7)nn6)cc5)cc4)nn3)cc2)CC1; 6.11
2) COc1ccccc1N1CCN(CCCCNC(=O)c2cccc(-c3cn(Cc4ccc(-c5ccc(Cn6cc(-c7cccc(C(=O)NCCCCN8CCN(c9ccccc9OC)CC8)c7)nn6)cc5)cc4)nn3)c2)CC1; 5.00

---

Recorded pKi by entry
# protocol.notes: Displacement of [3H]prazosin from adrenergic alpha1 receptor in pig striatal membranes
# Assay type: cell membranes, Sus scrofa, Striatum, Membrane
pKi: −log10 of the molar value.
measurement.label: pKi

1. COc1ccccc1N1CCN(CCCCNC(=O)c2cccc(-c3cn(Cc4ccc(-c5ccc(Cn6cc(-c7cccc(C(=O)NCCCCN8CCN(c9ccccc9OC)CC8)c7)nn6)cc5)cc4)nn3)c2)CC1; 6.46
2. COc1ccccc1N1CCN(CCCCNC(=O)c2ccc(-c3cn(Cc4ccc(-c5ccc(Cn6cc(-c7ccc(C(=O)NCCCCN8CCN(c9ccccc9OC)CC8)cc7)nn6)cc5)cc4)nn3)cc2)CC1; 6.64
